- Tested on: SK-MEL-2 melanoma
- assay notes: NCI tumour cell line growth inhibition, 48 h
measurement type: TGI

Query string: GET TGI | system: SK-MEL-2 melanoma | item: O=C([O-])c1cc(I)cc(I)c1[OH2+].O=C([O-])c1cc(I)cc(I)c1[OH2+].[Mn+2]
Result string: > 100 µM

Query string: GET TGI | system: SK-MEL-2 melanoma | item: Cc1cc2c(s1)C(N)CC2=O (stereo unspecified)
Result string: > 100 µM

Query string: GET TGI | system: SK-MEL-2 melanoma | item: COc1cc2ccnc(C=O)c2cc1OC
Result string: > 100 µM

Query string: GET TGI | system: SK-MEL-2 melanoma | item: C=CCSc1ncnc2c1ncn2C1OC(CO)C(O)C1O (stereo unspecified)
Result string: > 100 µM

Query string: GET TGI | system: SK-MEL-2 melanoma | item: Cc1nn(C(=O)c2ccccc2O)c2c1C(c1ccc3ccccc3c1O)SC(N)=N2 (stereo unspecified)
Result string: > 10 µM

Query string: GET TGI | system: SK-MEL-2 melanoma | item: C=C1C(=O)O[C@H]2[C@H]1CC/C(COC(=O)/C=C/C(=O)NCc1ccc(Cn3c(=O)sn(-c4ccccc4)c3=O)cc1)=C\CC[C@@]1(C)O[C@@H]21
Result string: 5.57 µM

Query string: GET TGI | system: SK-MEL-2 melanoma | item: CC1CCC(=O)NCCCCC(=O)N1 (stereo unspecified)
Result string: > 100 µM

Query string: GET TGI | system: SK-MEL-2 melanoma | item: Cc1ccc(-n2c(=O)c3nn4c(=O)n(-c5ccc(C)cc5)c(=O)c4nn3c2=O)cc1
Result string: > 100 µM

Query string: GET TGI | system: SK-MEL-2 melanoma | item: c1ccc2cc(C[n+]3ccn(CCCCCCCCCCCCn4cc[n+](Cc5ccc6ccccc6c5)c4)c3)ccc2c1
Result string: 1.27 µM

Query string: GET TGI | system: SK-MEL-2 melanoma | item: O=C(CC1(O)C(=O)Nc2c(Cl)ccc(Cl)c21)c1ccco1 (stereo unspecified)
Result string: > 69.2 µM

Query string: GET TGI | system: SK-MEL-2 melanoma | item: COc1ccc(-c2cc(-c3ccccc3)nc(SCCCC(=O)NO)n2)cc1OC
Result string: 7.39 µM

Query string: GET TGI | system: SK-MEL-2 melanoma | item: NC1CCCCC1N.Nc1c(N=Nc2ccc(-c3ccc(N=Nc4cc(S(=O)(=O)[O-])c5ccccc5c4N)cc3)cc2)cc(S(=O)(=O)[O-])c2ccccc12.[OH3+].[OH3+].[Pt+4]
Result string: > 100 µM

Query string: GET TGI | system: SK-MEL-2 melanoma | item: CC1(C)CN(c2cc(C(F)(F)F)cc3cncn23)CCC12NC(=O)NC2=O (stereo unspecified)
Result string: > 100 µM

Query string: GET TGI | system: SK-MEL-2 melanoma | item: Oc1ccc(O)c(Cc2ccccc2)c1
Result string: 37.3 µM

Query string: GET TGI | system: SK-MEL-2 melanoma | item: Cc1ccc(O)c(-c2cc(-c3cccc(Br)c3)on2)c1
Result string: 56 µM

Query string: GET TGI | system: SK-MEL-2 melanoma | item: O=C1C(c2c(O)[nH]c3ccc([N+](=O)[O-])cc23)=Nc2ccccc21
Result string: > 100 µM
